- test description: Oral bioavailability in rat
- Assay type: ADME, organism-based
- conditions: in vivo
metric: bioavailability (%)

1. CC[C@@H](C)[C@@H]1C(=O)N[C@H](C2Cc3ccccc3C2)C(=O)N1[C@@H](C(=O)NC(C)C)c1ccc(N2CCOCC2)cc1 31

(1) CC(C)C[C@@H]1C(=O)N[C@H](C2Cc3ccccc3C2)C(=O)N1[C@@H](C(=O)N1CCC1)c1ccc(F)cc1F
(2) CC(C)C[C@@H]1C(=O)N[C@H](C2Cc3ccccc3C2)C(=O)N1[C@@H](C(=O)N1CCOCC1)c1ccc(F)cc1F
Request: Lab notebook, comparison: 1 versus 2 , higher bioavailability goes to which? Write down the label of the entry you select.
Response: 2

* * *

- test description: Clearance in dog
- Assay type: ADME, organism-based, Canis lupus familiaris
- conditions: in vivo
metric: clearance (mL/min/kg)

1) CC(C)C[C@@H]1C(=O)N[C@H](C2Cc3ccccc3C2)C(=O)N1[C@@H](C(=O)N1CCOCC1)c1ccc(F)cc1F 8

(1) CNC(=O)[C@@H](c1ccc(F)cc1F)N1C(=O)[C@@H](C2Cc3ccccc3C2)NC(=O)[C@H]1CC(C)C
(2) CC(C)C[C@@H]1C(=O)N[C@H](C2Cc3ccccc3C2)C(=O)N1[C@@H](C(=O)NC(C)(C)C)c1ccc2c(c1)OCO2
Request: Lab notebook, comparison: 1 versus 2 , higher clearance goes to which? Write down the label of the entry you select.
Response: 2
(2: 23 mL/min/kg, 1: 13 mL/min/kg)

(a) CC(C)C[C@@H]1C(=O)N[C@H](C2Cc3ccccc3C2)C(=O)N1[C@@H](C(=O)N(C)CCO)c1ccc(F)cc1F
(b) CC(C)C[C@@H]1C(=O)N[C@H](C2Cc3ccccc3C2)C(=O)N1[C@@H](C(=O)NC(C)(C)C)c1ccc2c(c1)CCO2
Request: Lab notebook, comparison: a versus b , higher clearance goes to which? Write down the label of the entry you select.
Response: b

(1) CC[C@@H](C)[C@@H]1C(=O)N[C@H](C2Cc3ccccc3C2)C(=O)N1[C@@H](C(=O)NC(C)C)c1ccc(N2CCOCC2)cc1
(2) CC(C)C[C@@H]1C(=O)N[C@H](C2Cc3ccccc3C2)C(=O)N1[C@@H](C(=O)N1CCC1)c1ccc(F)cc1F
(3) CC(C)C[C@@H]1C(=O)N[C@H](C2Cc3ccccc3C2)C(=O)N1[C@@H](C(=O)NC(C)C)c1ccc(F)cc1F
Request: Sort ascending by clearance. Please write the labels in the order that was asked for.
Response: 2, 1, 3
(2: 4 mL/min/kg, 1: 6 mL/min/kg, 3: 11 mL/min/kg)

(a) CC(C)C[C@@H]1C(=O)N[C@H](C2Cc3ccccc3C2)C(=O)N1[C@@H](C(=O)N(C)C)c1ccc(F)cc1F
(b) CC(C)C[C@@H]1C(=O)N[C@H](C2Cc3ccccc3C2)C(=O)N1[C@@H](C(=O)O)c1ccc(F)cc1F
Request: From the items above, decide which of a and b has the lower clearance reading. Write down the label of the entry you select.
Response: a
(a: 7 mL/min/kg, b: 21 mL/min/kg)

* * *

- test description: Oral bioavailability in dog
- Assay type: ADME, organism-based, Canis lupus familiaris
- conditions: in vivo
metric: bioavailability (%)

1. CC(C)C[C@@H]1C(=O)N[C@H](C2Cc3ccccc3C2)C(=O)N1[C@@H](C(=O)O)c1ccc(F)cc1F 5

(A) CC(C)C[C@@H]1C(=O)N[C@H](C2Cc3ccccc3C2)C(=O)N1[C@@H](C(=O)N(C)CCO)c1ccc(F)cc1F
(B) CC(C)C[C@@H]1C(=O)N[C@H](C2Cc3ccccc3C2)C(=O)N1[C@@H](C(=O)NC(C)(C)C)c1ccc2c(c1)CCO2
(C) CC(C)C[C@@H]1C(=O)N[C@H](C2Cc3ccccc3C2)C(=O)N1[C@@H](C(=O)NC(C)C)c1ccc2occc2c1
(D) CC(C)C[C@@H]1C(=O)N[C@H](C2Cc3ccccc3C2)C(=O)N1[C@@H](C(=O)N(C)C)c1ccc(F)cc1F
Request: Sort ascending by bioavailability. Please write the labels in the order that was asked for.
Response: B, A, D, C

* * *

- test description: Volume of distribution in dog
- Format: ADME, organism-based, Canis lupus familiaris
- conditions: in vivo, read-out: Vdss
metric: Vd (L/kg)

1. CC(C)C[C@@H]1C(=O)N[C@H](C2Cc3ccccc3C2)C(=O)N1[C@@H](C(=O)N(C)C)c1ccc(F)cc1F 1.1
2. CC(C)C[C@@H]1C(=O)N[C@H](C2Cc3ccccc3C2)C(=O)N1[C@@H](C(=O)NC(C)C)c1ccc2occc2c1 0.9

* * *

- test description: Solubility of the compound
- Format: physicochemical
metric: solubility (µg/mL)

(1) CC(C)C[C@@H]1C(=O)N[C@H](C2Cc3ccccc3C2)C(=O)N1[C@@H](C(=O)N1CC(O)C1)c1ccc(F)cc1F
(2) CC(C)C[C@@H]1C(=O)N[C@H](C2Cc3ccccc3C2)C(=O)N1[C@@H](C(=O)N(C)C)c1ccc(F)cc1F
(3) CC(C)C[C@@H]1C(=O)N[C@H](C2Cc3ccccc3C2)C(=O)N1[C@@H](C(N)=O)c1ccc(F)cc1F
(4) CC(C)C[C@@H]1C(=O)N[C@H](C2Cc3ccccc3C2)C(=O)N1[C@@H](C(=O)NC(C)C)c1ccc(F)cc1F
Request: Rank the 4 compounds: largest solubility first, smallest last. Please write the labels in the order that was asked for.
Response: 1, 2, 4, 3
(1: 187 µg/mL, 2: 83 µg/mL, 4: 8 µg/mL, 3: 1 µg/mL)

(a) CNC(=O)[C@@H](c1ccc(F)cc1F)N1C(=O)[C@@H](C2Cc3ccccc3C2)NC(=O)[C@H]1CC(C)C
(b) CC(C)C[C@@H]1C(=O)N[C@H](C2Cc3ccccc3C2)C(=O)N1[C@@H](C(=O)O)c1ccc(F)cc1F
(c) CC(C)C[C@@H]1C(=O)N[C@H](C2Cc3ccccc3C2)C(=O)N1[C@@H](C(=O)N1CCC1)c1ccc(F)cc1F
Request: Sort ascending by solubility. Please write the labels in the order that was asked for.
Response: c, a, b

* * *

- test description: Volume of distribution in rat
- Assay type: ADME, organism-based
- conditions: in vivo, read-out: Vdss
metric: Vd (L/kg)

1) CC(C)C[C@@H]1C(=O)N[C@H](C2Cc3ccccc3C2)C(=O)N1[C@@H](C(=O)NC(C)C)c1ccc2occc2c1 1.4
2) CC(C)C[C@@H]1C(=O)N[C@H](C2Cc3ccccc3C2)C(=O)N1[C@@H](C(=O)N(C)C)c1ccc(F)cc1F 1.2

* * *

- test description: AUC in rat
- Assay type: ADME, organism-based
- Set-up: concentration or dose not given beside the values
- conditions: plasma
metric: AUC (ng·h/mL)

Here are 5 molecules together with their reported answers.
1) CC(C)C[C@@H]1C(=O)N[C@H](C2Cc3ccccc3C2)C(=O)N1[C@@H](C(=O)N1CCOCC1)c1ccc(F)cc1F 2150
2) CC(C)C[C@@H]1C(=O)N[C@H](C2Cc3ccccc3C2)C(=O)N1[C@@H](C(N)=O)c1ccc(F)cc1F 560
3) CC(C)C[C@@H]1C(=O)N[C@H](C2Cc3ccccc3C2)C(=O)N1[C@@H](CO)c1ccc(F)cc1F 567
4) CC(C)C[C@@H]1C(=O)N[C@H](C2Cc3ccccc3C2)C(=O)N1[C@@H](C(=O)O)c1ccc(F)cc1F 805
5) CC(C)C[C@@H]1C(=O)N[C@H](C2Cc3ccccc3C2)C(=O)N1[C@@H](C(=O)N1CCC1)c1ccc(F)cc1F 660

(I) CNC(=O)[C@@H](c1ccc(F)cc1F)N1C(=O)[C@@H](C2Cc3ccccc3C2)NC(=O)[C@H]1CC(C)C
(II) CC(C)C[C@@H]1C(=O)N[C@H](C2Cc3ccccc3C2)C(=O)N1[C@@H](C(=O)N1CC(O)C1)c1ccc(F)cc1F
(III) CC(C)C[C@@H]1C(=O)N[C@H](C2Cc3ccccc3C2)C(=O)N1[C@@H](C(=O)N(C)CCO)c1ccc(F)cc1F
Request: Descending sort on AUC required. Please write the labels in the order that was asked for.
Response: I, III, II
(I: 3690 ng·h/mL, III: 2350 ng·h/mL, II: 540 ng·h/mL)

* * *

- test description: Oral bioavailability in dog
- Assay type: ADME, organism-based, Canis lupus familiaris
- conditions: in vivo
metric: bioavailability (%)

Here are 2 compounds together with their reported answers.
1) CC[C@@H](C)[C@@H]1C(=O)N[C@H](C2Cc3ccccc3C2)C(=O)N1[C@@H](C(=O)NC(C)C)c1ccc(N2CCOCC2)cc1 61
2) CC(C)C[C@@H]1C(=O)N[C@H](C2Cc3ccccc3C2)C(=O)N1[C@@H](C(=O)N1CCC1)c1ccc(F)cc1F 37

(I) CC(C)C[C@@H]1C(=O)N[C@H](C2Cc3ccccc3C2)C(=O)N1[C@@H](C(=O)NC(C)C)c1ccc(N(C)C)cc1
(II) CNC(=O)[C@@H](c1ccc(F)cc1F)N1C(=O)[C@@H](C2Cc3ccccc3C2)NC(=O)[C@H]1CC(C)C
(III) CC(C)C[C@@H]1C(=O)N[C@H](C2Cc3ccccc3C2)C(=O)N1[C@@H](C(=O)N1CCOCC1)c1ccc(F)cc1F
Request: Descending sort on bioavailability required. Please write the labels in the order that was asked for.
Response: I, II, III
(I: 50%, II: 11%, III: 7%)

Recorded values, source ChEMBL document CHEMBL1138900.
